target: recombinant human AMPK complex, containing α2β1γ2 (Homo sapiens, UniProt P54646+Q9Y478); construct: hsAMPKα2-552-His, hsAMPKβ1-2-270 and hsAMPKγ-2-569 respectively; hsAMPKβ1-2-270; hsAMPKγ-2-569; His (C); test: AMPK in vitro activation assay (HTRF); conditions: HTRF, recombinant human α2β1γ2 AMPK, 200 μM ATP, biotinylated ACC-CREBp peptide; repeat determinations on separate lines
Sequence (P54646 2-552): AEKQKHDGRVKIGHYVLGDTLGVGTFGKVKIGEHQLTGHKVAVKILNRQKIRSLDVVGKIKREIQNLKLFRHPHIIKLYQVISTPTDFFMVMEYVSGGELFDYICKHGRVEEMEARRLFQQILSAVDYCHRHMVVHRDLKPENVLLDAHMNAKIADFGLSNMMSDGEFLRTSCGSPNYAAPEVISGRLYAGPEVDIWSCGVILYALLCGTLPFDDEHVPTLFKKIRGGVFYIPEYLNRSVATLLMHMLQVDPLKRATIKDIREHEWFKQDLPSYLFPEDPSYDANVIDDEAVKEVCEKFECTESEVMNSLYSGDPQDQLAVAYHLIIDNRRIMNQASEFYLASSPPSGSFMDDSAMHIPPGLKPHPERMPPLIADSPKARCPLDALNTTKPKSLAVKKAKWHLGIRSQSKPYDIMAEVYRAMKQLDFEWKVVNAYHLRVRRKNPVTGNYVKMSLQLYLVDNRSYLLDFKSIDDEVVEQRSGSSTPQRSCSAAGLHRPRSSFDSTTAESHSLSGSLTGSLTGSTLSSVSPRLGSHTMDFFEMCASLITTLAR
Sequence (Q9Y478 2-270): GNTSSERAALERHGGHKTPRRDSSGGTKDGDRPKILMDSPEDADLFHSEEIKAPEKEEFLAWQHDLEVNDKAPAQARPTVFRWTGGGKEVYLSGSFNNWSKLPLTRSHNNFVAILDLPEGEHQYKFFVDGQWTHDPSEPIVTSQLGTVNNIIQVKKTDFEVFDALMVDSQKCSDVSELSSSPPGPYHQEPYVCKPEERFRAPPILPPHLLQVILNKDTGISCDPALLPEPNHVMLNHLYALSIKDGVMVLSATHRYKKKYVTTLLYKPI
Sequence (Q9UGJ0 2-569 partner limits assumed): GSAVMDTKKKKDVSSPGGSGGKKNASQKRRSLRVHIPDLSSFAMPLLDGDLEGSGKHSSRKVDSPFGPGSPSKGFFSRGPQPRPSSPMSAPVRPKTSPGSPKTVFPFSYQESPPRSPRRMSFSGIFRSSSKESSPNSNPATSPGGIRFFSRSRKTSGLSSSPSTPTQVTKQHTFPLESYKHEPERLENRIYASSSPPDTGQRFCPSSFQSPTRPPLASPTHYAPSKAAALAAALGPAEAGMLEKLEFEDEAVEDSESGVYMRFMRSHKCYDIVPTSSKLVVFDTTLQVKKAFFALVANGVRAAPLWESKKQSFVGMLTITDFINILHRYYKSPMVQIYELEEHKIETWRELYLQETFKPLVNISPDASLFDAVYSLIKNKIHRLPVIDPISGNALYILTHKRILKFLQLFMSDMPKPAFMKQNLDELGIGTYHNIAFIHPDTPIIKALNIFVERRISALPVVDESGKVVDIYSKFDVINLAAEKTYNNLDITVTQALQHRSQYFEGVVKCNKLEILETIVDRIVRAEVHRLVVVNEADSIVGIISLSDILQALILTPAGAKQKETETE
pEC50: −log10 of the molar value.
RECORDED_METRIC: pEC50

- Cc1cc(C(O)=C2C(=O)Nc3cc(Cl)c(-c4ccc(N5CCOCC5)cc4)cc32)no1 [Compound 28]: 6.89
- CC(C)Oc1cc(C(O)=C2C(=O)Nc3cc(Cl)c(-c4ccc(C5CC(O)C5)cc4)cc32)on1 (stereo not shown) [Compound 166]: 7.89
- O=C1Nc2cc(Cl)c(-c3ccc(C4(CO)CC4)cc3)cc2C1=C(O)c1cncc(F)c1 [Compound 142]: 8.22
- COc1cc(C(O)=C2C(=O)Nc3cc(Cl)c(-c4ccc(N(C)C5CC5)cc4)cc32)on1 [Compound 153]: 8.15

---

target: recombinant human AMPK complex, containing α2β1γ2 (Homo sapiens, UniProt P54646+Q9Y478); construct: hsAMPKα2-552-His, hsAMPKβ1-2-270 and hsAMPKγ-2-569 respectively; hsAMPKβ1-2-270; hsAMPKγ-2-569; His (C); made in house; host or cells: Spodoptera frugiperda Sf21 (baculovirus); experiment: AMPK in vitro activation assay (HTRF); assay type: biochemical; conditions: potentiation of AMPK activity as percent over the basal signal (without compound)
Below, each of the molecules is paired with its reported Emax value.
RECORDED_METRIC: Emax (%)

• COCCOc1ccc(-c2cc3c(cc2Cl)NC(=O)C3=C(O)c2cc(C)no2)cc1 = 114
• O=C1Nc2cc(Cl)c(-c3ccc(C4(CO)CC4)cc3)cc2C1=C(O)c1cc2ccccc2o1 = 173
• Cc1cc(C(O)=C2C(=O)Nc3cc(C)c(-c4ccc(N5CCOCC5)cc4)cc32)on1 = 147
• O=C1Nc2cc(Cl)c(-c3ccc(N4CCOCC4)cc3)cc2C1=C(O)c1cc(O)no1 = 122

---

molecular target: recombinant human AMPK complex, containing α2β1γ2 (Homo sapiens, UniProt P54646+Q9Y478); construct: hsAMPKα2-552-His, hsAMPKβ1-2-270 and hsAMPKγ-2-569 respectively; hsAMPKβ1-2-270; hsAMPKγ-2-569; His (C); experiment: AMPK in vitro activation assay (HTRF); conditions: HTRF, recombinant human α2β1γ2 AMPK, 200 μM ATP, biotinylated ACC-CREBp peptide; repeat determinations on separate lines
Structures can show the parent of a compound that is named as a salt.
RECORDED_METRIC: log10 of EC50 (log10 of the value in nM)

• O=C1Nc2cc(Cl)c(-c3ccc(-c4ccccc4)cc3)cc2C1=C(O)c1ccccc1 = 3.15
• Cc1cc(C(O)=C2C(=O)Nc3cc(Cl)c(-c4ccc(C(O)(CO)CCl)cc4)cc32)on1 (stereo not shown) = 1.18
• O=C1Nc2cc(Cl)c(-c3ccc(N4CCOCC4)cc3)cc2C1=C(O)c1ccno1 = 1.46
• COc1cccc(-c2ccc(-c3cc4c(cc3Cl)NC(=O)C4=C(O)c3cc(C4CC4)no3)cc2)c1O = -1.00
• COc1cc(C(O)=C2C(=O)Nc3cc(Cl)c(-c4ccc(C5(CO)CC5)cc4)cc32)ccn1 = -0.30
• CC(C)(C)c1cc(C(O)=C2C(=O)Nc3cc(Cl)c(-c4ccc(N5CCOCC5)cc4)cc32)on1 = 1.11
• O=C1Nc2cc(F)c(-c3ccc(C4(CO)CC4)cc3)c(F)c2C1=C(O)c1cc(C2CC2)no1 = -0.70
• COc1cc(C(O)=C2C(=O)Nc3cc(Cl)c(-c4ccc(N5CCOCC5)c(F)c4)cc32)on1 = 0.78
• Cc1cc(C(O)=C2C(=O)Nc3cc(Cl)c(-c4ccc(OCc5ncccn5)cc4)cc32)on1 = 1.80
• Cc1cc(C(O)=C2C(=O)Nc3cc(Cl)c(-c4ccc(C5CCN(C)CC5)cc4)cc32)on1 [Compound 78, hydrochloride] = 0.85
• COc1cc(C(O)=C2C(=O)Nc3cc(Cl)c(-c4ccc(OC5CCOCC5)cc4)cc32)on1 = 1.72
• O=C1Nc2cc(Cl)c(-c3ccc(C4(CO)CC4)cc3)cc2C1=C(O)c1cc(Br)no1 = 0.78
• O=C1Nc2cc(Cl)c(-c3ccc(C4CC(O)C4)cc3)cc2C1=C(O)c1cc(C2CC2)no1 (stereo not shown) = 0.00
• COc1cccc(-c2ccc(-c3cc4c(cc3Cl)NC(=O)C4=C(O)c3cc(C)ns3)cc2)c1O = 1.43
• O=C1Nc2cc(Cl)c(-c3ccc(C4=CCOCC4)cc3)cc2C1=C(O)c1cccc(F)c1 = 2.08
• O=C1Nc2cc(Cl)c(-c3ccc(C4CC(O)C4)cc3)cc2C1=C(O)c1ccccc1F (stereo not shown) = 0.78
• COCCOc1ccc(-c2cc3c(cc2Cl)NC(=O)C3=C(O)c2cc(C)no2)cc1 = 1.20
• O=C1Nc2cc(Cl)c(-c3ccc(N4CCOCC4)cc3)cc2C1=C(O)c1cc(C2CC2)on1 = 1.99
• O=C1Nc2cc(Cl)c(-c3ccc(N4CCOCC4)cc3)cc2C1=C(O)c1ccc(OC(F)(F)F)c(F)c1 = 2.60
• O=C1Nc2cc(Cl)c(-c3ccc(N4CCOCC4)cc3)cc2C1=C(O)c1cccc(N2CCOCC2)c1 = 1.15
• O=C1Nc2cc(Cl)c(-c3ccc(C4(CO)CC4)cc3)cc2C1=C(O)c1cc2cc(Cl)ccc2o1 = 0.78
• COc1cc(-c2cc3c(cc2Cl)NC(=O)C3=C(O)c2cc(C)no2)ccc1O = 2.89
• COc1ccc(C(O)=C2C(=O)Nc3cc(Cl)c(-c4ccc(C5(CO)CC5)cc4)cc32)c(OC)c1 = 0.48
• COc1ccc(C(O)=C2C(=O)Nc3cc(Cl)c(-c4ccc(N5CCOCC5)cc4)cc32)nc1 = 1.32
• O=C1Nc2cc(Cl)c(-c3ccc(C4(CO)CC4)cc3)cc2C1=C(O)c1ccc(F)cc1F = 0.30
• COc1cccc(C(O)=C2C(=O)Nc3cc(Cl)c(-c4ccc(N5CCOCC5)cc4)cc32)c1 = 1.60
• O=C1Nc2cc(Cl)c(-c3ccc(N4CCOCC4)cc3)cc2C1=C(O)c1ccc(F)cc1 = 2.58
• COc1cc(C(O)=C2C(=O)Nc3cc(Cl)c(-c4ccc(C(O)CO)cc4)cc32)on1 (stereo not shown) = 0.85
• O=C1Nc2cc(Cl)c(-c3ccc(N4CCOCC4)cc3)cc2C1=C(O)c1cccc(C(F)(F)F)c1 = 2.86
• COc1cc(C(O)=C2C(=O)Nc3cc(Cl)c(-c4ccc(OCCCN5CCOCC5)cc4)cc32)on1 = 0.70
• COc1cc(C(O)=C2C(=O)Nc3cc(Cl)c(-c4ccc(N(C)C)cc4F)cc32)on1 = 0.00
